Catalogue of compounds with associated EC50
- measuredTarget: Mm_Fpr1 (Mus musculus)
- Construct: expressed in transfected cells
- Sequence (P33766 whole entry): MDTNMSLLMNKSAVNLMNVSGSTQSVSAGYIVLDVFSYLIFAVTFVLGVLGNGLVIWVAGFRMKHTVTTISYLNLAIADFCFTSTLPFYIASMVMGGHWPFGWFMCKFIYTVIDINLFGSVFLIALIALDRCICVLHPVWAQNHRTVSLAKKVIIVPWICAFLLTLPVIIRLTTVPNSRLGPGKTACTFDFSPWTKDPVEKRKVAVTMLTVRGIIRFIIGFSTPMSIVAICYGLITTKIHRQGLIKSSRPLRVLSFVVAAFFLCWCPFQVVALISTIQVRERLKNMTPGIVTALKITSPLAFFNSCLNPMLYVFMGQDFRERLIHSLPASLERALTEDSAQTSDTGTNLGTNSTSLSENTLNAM
- protocolDescription: BRET receptor-RLuc8 interaction with Arrestin 3-YFP
- Assay type: cell-based
Where a SMILES comes first, the peptide text is derived from it. The star is where a group is joined. For = O=C*
readoutName: EC50

compound=COc1cc(F)c([C@@H]2CNC(=O)[C@H]2NC(=O)Nc2ccccc2)c(F)c1 measuredtarget="Mm_Fpr1 (Mus musculus)" endpointresult="0.00676 µM"
compound=CSCC[C@H](NC=O)C(=O)N[C@@H](CC(C)C)C(=O)N[C@@H](Cc1ccccc1)C(=O)O measuredtarget="Mm_Fpr1 (Mus musculus)" endpointresult="20.9 µM"
compound="CSCC[C@H](NC=O)C(=O)N[C@@H](CC(C)C)C(=O)N[C@@H](Cc1ccccc1)C(=O)N[C@@H](CCCCN)C(=O)O [fMLFK, fMet-Leu-Phe-Lys] (For-MLFK-OH)" measuredtarget="Mm_Fpr1 (Mus musculus)" endpointresult="7.24 µM"

----------
- measuredTarget: Hs_FPR2 (Homo sapiens)
- Construct: expressed in transfected cells
- Sequence (P25090 whole entry): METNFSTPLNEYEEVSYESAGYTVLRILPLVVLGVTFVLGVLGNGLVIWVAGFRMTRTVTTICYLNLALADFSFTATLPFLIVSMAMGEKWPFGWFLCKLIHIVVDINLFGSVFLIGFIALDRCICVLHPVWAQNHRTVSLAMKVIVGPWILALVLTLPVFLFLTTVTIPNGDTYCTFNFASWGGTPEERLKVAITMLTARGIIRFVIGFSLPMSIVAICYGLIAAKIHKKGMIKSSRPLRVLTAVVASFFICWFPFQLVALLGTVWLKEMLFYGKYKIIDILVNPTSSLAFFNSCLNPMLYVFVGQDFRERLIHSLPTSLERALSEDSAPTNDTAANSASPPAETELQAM
- protocolDescription: Competition binding of fluorescent WKYMVm, flow cytometry
- reportedConditions: maximum proportion of competition with 10 nM K(5/6-FAM)-WKYMVm; mean; ND = no competition observed
Where a SMILES comes first, the peptide text is derived from it. The star is where a group is joined. Palmitoyl = CCCCCCCCCCCCCCCC(=O)*; For = O=C*
Catalogue of compounds with associated Max Comp (%)
readoutName: Max Comp (%)

compound="CCCCCCCCCCCCCCCC(=O)N[C@@H](CCCCN)C(=O)N[C@H](C(=O)N[C@@H](Cc1c[nH]cn1)C(=O)N[C@@H](CCCCN)C(=O)N[C@@H](CCCCN)C(=O)NCC(=O)N[C@@H](CCSC)C(=O)N[C@H](C(=O)N[C@@H](CCCCN)C(=O)N[C@@H](CO)C(=O)O)[C@@H](C)CC)[C@@H](C)CC [F2Pal10] (Palmitoyl-KIHKKGMIKS-OH)" measuredtarget="Hs_FPR2 (Homo sapiens)" endpointresult=100
compound="CCCCOc1ccc(C(=O)NN2C(=O)c3ccccc3NC2c2ccc(OC)cc2)cc1 (stereo not drawn)" measuredtarget="Hs_FPR2 (Homo sapiens)" endpointresult=13.23
compound=COc1cc(F)c([C@@H]2CNC(=O)[C@H]2NC(=O)Nc2ccccc2)c(F)c1 measuredtarget="Hs_FPR2 (Homo sapiens)" endpointresult=60.14
compound=CSCC[C@H](NC=O)C(=O)N[C@@H](CC(C)C)C(=O)N[C@@H](Cc1ccccc1)C(=O)O measuredtarget="Hs_FPR2 (Homo sapiens)" endpointresult=3.4
compound=Cc1cccc(-c2oc(C)nc2C(=O)Nc2cnn(Cc3nc(C(C)(F)F)co3)n2)c1 measuredtarget="Hs_FPR2 (Homo sapiens)" endpointresult=94.77
compound="CSCC[C@H](NC=O)C(=O)N[C@@H](CC(C)C)C(=O)N[C@@H](Cc1ccccc1)C(=O)N[C@@H](CCCCN)C(=O)O [fMLFK, fMet-Leu-Phe-Lys] (For-MLFK-OH)" measuredtarget="Hs_FPR2 (Homo sapiens)" endpointresult=14.72

----------
Catalogue of molecules with associated Emax
- measuredTarget: Mm_Fpr2 (Mus musculus)
- Construct: expressed in transfected cells
- Sequence (O88536 whole entry): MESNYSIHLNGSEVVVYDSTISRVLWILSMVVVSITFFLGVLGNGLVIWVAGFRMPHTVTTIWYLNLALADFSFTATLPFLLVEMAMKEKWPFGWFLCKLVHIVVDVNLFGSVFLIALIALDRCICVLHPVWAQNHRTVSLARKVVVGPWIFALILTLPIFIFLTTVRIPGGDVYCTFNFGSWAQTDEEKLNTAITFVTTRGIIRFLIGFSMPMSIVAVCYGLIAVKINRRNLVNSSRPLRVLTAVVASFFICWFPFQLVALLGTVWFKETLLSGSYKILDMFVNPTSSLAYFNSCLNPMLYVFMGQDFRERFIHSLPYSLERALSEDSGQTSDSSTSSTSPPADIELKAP
- protocolDescription: ERK1/2 phosphorylation by Western blotting
- Format: cell-based
Where a SMILES comes first, the peptide text is derived from it. The star is where a group is joined. Palmitoyl = CCCCCCCCCCCCCCCC(=O)*; For = O=C*
readoutName: Emax (%)

molecule="CC[C@H](C)[C@H](NC(=O)[C@H](CC(C)C)NC(=O)[C@H](CCCCN)NC(=O)[C@H](CCSC)NC(=O)[C@H](CC(C)C)NC(=O)[C@@H]1CCCN1C(=O)[C@H](CC(N)=O)NC(=O)[C@@H](NC(=O)[C@H](CCCCN)NC(=O)[C@H](CCCNC(=N)N)NC(=O)[C@H](CCSC)NC(=O)[C@@H]1CCCN1C(=O)[C@@H](NC(=O)[C@H](CCSC)NC=O)[C@@H](C)O)[C@@H](C)CC)C(=O)N[C@@H](CC(N)=O)C(=O)O [MCT-2, Formyl-MTPMRKINPLMKLIN] (For-MTPMRKINPLMKLIN-OH)" endpointresult=169
molecule="CSCC[C@H](NC=O)C(=O)N[C@@H](CC(C)C)C(=O)N[C@@H](Cc1ccccc1)C(=O)N[C@@H](CCCCN)C(=O)O [fMLFK, fMet-Leu-Phe-Lys] (For-MLFK-OH)" endpointresult=176
molecule=CSCC[C@H](NC(=O)[C@H](Cc1ccc(O)cc1)NC(=O)[C@H](CCCCN)NC(=O)[C@@H](N)Cc1c[nH]c2ccccc12)C(=O)N[C@H](C(=O)N[C@H](CCSC)C(N)=O)C(C)C endpointresult=118
molecule=COc1cc(F)c([C@@H]2CNC(=O)[C@H]2NC(=O)Nc2ccccc2)c(F)c1 endpointresult=116
molecule="CCCCCCCCCCCCCCCC(=O)N[C@@H](CCCCN)C(=O)N[C@H](C(=O)N[C@@H](Cc1c[nH]cn1)C(=O)N[C@@H](CCCCN)C(=O)N[C@@H](CCCCN)C(=O)NCC(=O)N[C@@H](CCSC)C(=O)N[C@H](C(=O)N[C@@H](CCCCN)C(=O)N[C@@H](CO)C(=O)O)[C@@H](C)CC)[C@@H](C)CC [F2Pal10] (Palmitoyl-KIHKKGMIKS-OH)" endpointresult=141
